test-target: human EP3 receptor (Homo sapiens, UniProt P43115)
Sequence (P43115 whole entry): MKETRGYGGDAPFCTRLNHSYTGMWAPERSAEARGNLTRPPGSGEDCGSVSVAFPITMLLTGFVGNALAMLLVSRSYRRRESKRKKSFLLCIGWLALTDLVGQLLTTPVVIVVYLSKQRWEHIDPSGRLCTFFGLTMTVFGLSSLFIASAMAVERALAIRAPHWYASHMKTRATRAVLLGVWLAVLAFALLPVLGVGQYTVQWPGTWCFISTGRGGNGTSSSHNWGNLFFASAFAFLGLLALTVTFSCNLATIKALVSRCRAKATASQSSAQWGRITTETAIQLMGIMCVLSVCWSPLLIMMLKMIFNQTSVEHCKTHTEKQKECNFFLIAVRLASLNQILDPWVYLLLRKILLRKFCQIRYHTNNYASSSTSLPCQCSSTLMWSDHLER
protocol: Cellular in vitro assay for determining EP3 receptor activity (human EP3 cell line, sulprostone-stimulated calcium luminescence)
test-conditions: CHO cells expressing human EP3 and mitochondrial Clytin; antagonist mode, sulprostone at EC50; read-out: EP3 CHO mtCLY ANTAG IC50
property-label: pIC50
Give bare numbers, as −log10 of the molar value.

Cc1ccc(-c2cn3nc(C(=O)N[C@@H](c4ccc(F)cc4)[C@H](O)C(F)(F)F)c(C4CC4)c3c(=O)[nH]2)cc1Cl: 8.91
Cc1cc(-c2cn3nc(C(=O)N[C@@H](C)C4CC4)c(C4CC(F)(F)C4)c3c(=O)[nH]2)ccc1Cl: 8.94
O=C(N[C@@H](c1ccc(F)cc1)C(F)(F)CO)c1nn2cc(-c3ccc(Cl)c(Cl)c3)[nH]c(=O)c2c1C1CC1: 8.83
CN(C)C[C@@H](NC(=O)c1cc2c(=O)[nH]c(-c3ccc4c(c3F)OCCO4)cn2n1)c1ccccc1: 8.22
CC(C)(O)[C@@H](NC(=O)c1nn2cc(-c3ccc(Cl)c(Cl)c3)[nH]c(=O)c2c1C1CC(F)(F)C1)c1ccc(F)cc1: 8.59

Please look at the items below and tell me pIC50 for each one, in order.
1. COC[C@H](Cc1ccccc1)NC(=O)c1cc2c(=O)[nH]c(-c3ccc4ccccc4c3)cn2n1
2. Cc1cc(-c2cn3nc(C(=O)NCC(C)(N)C(F)(F)F)c(C4CC4)c3c(=O)[nH]2)ccc1Cl (single isomer, unassigned) [6-320]
3. COc1ccc(C2(NC(=O)c3cc4c(=O)[nH]c(-c5ccc6ccccc6c5)cn4n3)CN(C(=O)OC(C)(C)C)C2)cn1
4. Cc1cccc2ncc(-c3cn4nc(C(=O)NC5(C)CCS(=O)(=O)C5)c(C(C)C)c4c(=O)[nH]3)cc12 (stereo not shown)
5. O=C(NC(c1ccc(F)cc1)C1(O)CC1)c1nn2cc(-c3ccc(Cl)c(Cl)c3)[nH]c(=O)c2c1C1CC1 (single isomer, unassigned) [6-424]
6. Cn1cc(CNC(=O)c2nn3cc(-c4ccc5ccccc5c4)[nH]c(=O)c3c2C#N)cn1
7. COC[C@@H](NC(=O)c1cc2c(=O)[nH]c(-c3ccc4ccccc4c3)cn2n1)c1ccccc1
8. COc1ccc(C(CCO)NC(=O)c2cc3c(=O)[nH]c(-c4ccc(C)c(C(F)(F)F)c4)cn3n2)cc1 (stereo not shown)

[8.54, 8.87, 8.89, 8.61, 9.17, 8.06, 8.58, 8.12]

Please look at the items below and tell me pIC50 for each one, in order.
1. Cc1ccc(-c2cn3nc(C(=O)N[C@H](CCO)c4ccc(F)cc4)cc3c(=O)[nH]2)cc1Cl
2. Cc1ccc(-c2cn3nc(C(=O)N[C@@H](c4ccc(F)cc4)C(C)(C)O)c(C4CC4)c3c(=O)[nH]2)cc1C

1: 9.06; 2: 8.98

###

test-target: human EP3 receptor (Homo sapiens)
protocol: Cellular in vitro assay for determining EP3 receptor activity (human EP3 cell line, sulprostone-stimulated calcium luminescence)
test-conditions: CHO cells expressing human EP3 and mitochondrial Clytin; antagonist mode, sulprostone at EC50; read-out: EP3 CHO mtCLY ANTAG IC50
property-label: pIC50
Numbers only, as −log10 of the molar value.

C[C@H](NC(=O)c1cc2c(=O)[nH]c(-c3ccc4ccccc4c3)cn2n1)c1ccccc1: 8.72
C[C@H](NC(=O)c1cc2c(=O)[nH]c(-c3ccc4ccccc4c3)cn2n1)c1ccc(F)cc1: 8.34
CC(NC(=O)c1cc2c(=O)[nH]c(-c3ccc4ccccc4c3)cn2n1)c1ccc(F)cc1 (stereo not shown): 8.51
CC[C@@H](C)NC(=O)c1nn2cc(-c3cnc4cccc(C)c4c3)[nH]c(=O)c2c1C(F)(F)F: 8.11
Cc1ccc(-c2cn3nc(C(=O)NC(C)CN4CCOCC4)c(C4CC4)c3c(=O)[nH]2)cc1C (racemic) [6-450]: 7.92

Please look at the items below and tell me pIC50 for each one, in order.
1. Cc1cc(-c2cn3nc(C(=O)N[C@@H](c4ccc(F)cc4)C(F)(F)CO)c(C(F)(F)F)c3c(=O)[nH]2)ccc1Cl
2. Cc1cccc2ncc(-c3cn4nc(C(=O)Nc5cccc6ncccc56)c(C(C)C)c4c(=O)[nH]3)cc12

8.99
8.80
